Molecular target: human P2X7 (Homo sapiens, UniProt Q99572)
Construct: 1321N1 cells stably expressing the full length human P2X7 gene (1321N1-hP2X7)
Assay: P2X7 modulator pIC50 of Table 1 (assay not given; Intracellular Calcium Flux (FLIPR) Assay assumed)
VALUE_TYPE: pIC50
Scale: pIC50 equals -log10([C]), with [C] in mol/L.

Look over these answered cases.
Request: Lab note: need pIC50 with human P2X7 (Homo sapiens, UniProt Q99572) for entry CN1C=C(C(=O)Nc2cc(-n3ncccc3=O)ccc2F)[C@H](c2ccc(F)cc2)NC1=O [Compound 74] , please look it up.
Response: 7.00

Request: Lab note: need pIC50 with human P2X7 (Homo sapiens, UniProt Q99572) for entry Cc1ccc(-c2ccn[nH]c2=O)cc1NC(=O)C1=CN(C)C(=O)N[C@H]1c1ccc(F)cc1 [Compound 32] , please look it up.
Response: 7.67

Request: Lab note: need pIC50 with human P2X7 (Homo sapiens, UniProt Q99572) for entry Cc1ccc(-n2ncc(=O)n(C)c2=O)cc1NC(=O)C1=CN(C)C(=O)N[C@H]1c1ccc(F)cc1 [Compound 35] , please look it up.
Response: 6.98

Next item in the queue.
Request: Lab note: need pIC50 with human P2X7 (Homo sapiens, UniProt Q99572) for entry Cc1cc(F)c(-c2cccn(C)c2=O)cc1NC(=O)C1=CN(C)C(=O)N[C@H]1c1ccc(F)cc1 [Compound 70] , please look it up.
Response: 7.48

====

Molecular target: human P2X7 (Homo sapiens, UniProt Q99572)
Construct: 1321N1 cells stably expressing the full length human P2X7 gene (1321N1-hP2X7)
Sequence (Q99572 1-595): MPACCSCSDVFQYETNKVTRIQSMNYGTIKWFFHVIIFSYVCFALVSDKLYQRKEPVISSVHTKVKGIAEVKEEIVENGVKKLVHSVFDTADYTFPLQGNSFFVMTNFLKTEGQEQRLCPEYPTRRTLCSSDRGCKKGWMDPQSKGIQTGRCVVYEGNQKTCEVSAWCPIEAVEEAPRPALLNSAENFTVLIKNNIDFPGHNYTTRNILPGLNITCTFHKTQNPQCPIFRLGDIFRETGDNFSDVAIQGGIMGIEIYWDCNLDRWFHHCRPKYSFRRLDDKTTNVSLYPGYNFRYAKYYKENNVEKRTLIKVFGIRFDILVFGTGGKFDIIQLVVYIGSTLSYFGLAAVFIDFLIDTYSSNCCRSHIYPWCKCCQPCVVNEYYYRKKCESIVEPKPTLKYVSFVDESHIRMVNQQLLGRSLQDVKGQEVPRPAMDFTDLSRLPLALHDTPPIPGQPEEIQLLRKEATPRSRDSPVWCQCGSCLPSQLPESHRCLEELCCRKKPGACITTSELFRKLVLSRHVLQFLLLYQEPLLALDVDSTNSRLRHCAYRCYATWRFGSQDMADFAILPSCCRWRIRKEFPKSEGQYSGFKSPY
Experiment: P2X7 modulator pIC50 of Table 1 (assay not given; Intracellular Calcium Flux (FLIPR) Assay assumed)
Format: cell-based
This section presents compounds with their documented IC50 values.
All answers are understood in nM, so give the number only.

Request: Entry Cc1cc(F)c(-n2ncccc2=O)cc1NC(=O)C1=CN(C)C(=O)N[C@H]1c1ccc(F)cc1 [Compound 69] has what IC50?
Response: 19.3
